Test system: BT-474
Test description: normalised response (% of control), CellTiter-Glo; higher = more viable cells (100 = DMSO, 0 = benzethonium chloride kill control)
Experimental conditions: incubation time: 72 h
Measured quantity: normalised response (%)
State just the number; it will be interpreted in %.

[in] Param item = CC[C@H](CO)Nc1nc(NCc2ccccc2)c2ncn(C(C)C)c2n1 [Seliciclib] (1000 nM) ; retrieve measured normalised response.
[out] 96.9

====

Test system: BT-549
Test description: normalised viability (% of control), CellTiter-Blue; higher = more viable cells (about 100 = DMSO control)
Experimental conditions: 1000 nM; incubation time: 72 h
normalised viability: recorded values
Report as a plain number; the unit % is understood.

Solved entries (count: 4):
[[record]]
smiles_string = "COc1c2occc2cc2ccc(=O)oc12"
measured_quantity = "normalised viability"
assay_result = 104

[[record]]
smiles_string = "C=CCn1c(=O)c2cnc(Nc3ccc(N4CCN(C)CC4)cc3)nc2n1-c1cccc(C(C)(C)O)n1"
measured_quantity = "normalised viability"
assay_result = 31

[[record]]
smiles_string = "CO[C@@H]1[C@H](N(C)C(=O)c2ccccc2)C[C@H]2O[C@]1(C)n1c3ccccc3c3c4c(c5c6ccccc6n2c5c31)C(=O)NC4"
measured_quantity = "normalised viability"
assay_result = 59.5

[[record]]
smiles_string = "CC(C)C[C@H](NC(=O)[C@@H](COC(C)(C)C)NC(=O)[C@H](Cc1ccc(O)cc1)NC(=O)[C@H](CO)NC(=O)[C@H](Cc1c[nH]c2ccccc12)NC(=O)[C@H](Cc1cnc[nH]1)NC(=O)[C@@H]1CCC(=O)N1)C(=O)N[C@@H](CCCNC(=N)N)C(=O)N1CCC[C@H]1C(=O)NNC(N)=O"
measured_quantity = "normalised viability"
assay_result = 88


# evaluate next
[in] Test system BT-549; read-out normalised viability; what value for CCNC(=O)c1noc(-c2cc(C(C)C)c(O)cc2O)c1-c1ccc(CN2CCOCC2)cc1 ?
[out] 31.7
